assay text: Pharmacokinetic analyses, plasma, cycle 1 day 4 and day 5
measurement parameters: human, plasma, intravenous, t max, Median (min–max); 600 mg/m^2 Bel + 75 mg/m^2 doxorubicin, Day 5 (with doxorubicin), N = 6
quantity measured: Tmax (min)
Reply with just the number (in min).

Query: Fill blank: measured Tmax of the molecule O=C(/C=C/c1cccc(S(=O)(=O)Nc2ccccc2)c1)NO [belinostat] is ____.
Result: 31

----------
assay text: Pharmacokinetic analyses, plasma, cycle 1 day 4 and day 5
measurement parameters: human, plasma, intravenous, C max, 600 mg/m^2 Bel + 75 mg/m^2 doxorubicin, Day 5 (with doxorubicin), N = 6
quantity measured: Cmax (ng/mL)
Reply with just the number (in ng/mL).

Query: Fill blank: measured Cmax of the molecule O=C(/C=C/c1cccc(S(=O)(=O)Nc2ccccc2)c1)NO is ____.
Result: 17400

----------
assay text: Pharmacokinetic analyses, plasma, cycle 1 day 4 and day 5
measurement parameters: human, plasma, intravenous, 600 mg/m^2, C max, 600 mg/m^2 Bel + 75 mg/m^2 doxorubicin, Day 4 (Bel alone), N = 7
quantity measured: Cmax (ng/mL)
Reply with just the number (in ng/mL).

Query: Fill blank: measured Cmax of the molecule O=C(/C=C/c1cccc(S(=O)(=O)Nc2ccccc2)c1)NO is ____.
Result: 16800

----------
assay text: Pharmacokinetic analyses, plasma, cycle 1 day 4 and day 5
measurement parameters: human, plasma, intravenous, V ss, 1000 mg/m^2 Bel + 75 mg/m^2 doxorubicin, Day 5 (with doxorubicin), N = 19
quantity measured: Vd
Note: state the figure and append the unit.

Query: Fill blank: measured Vd of the compound O=C(/C=C/c1cccc(S(=O)(=O)Nc2ccccc2)c1)NO [belinostat] is ____.
Result: 57.6 L

----------
assay text: Pharmacokinetic analyses, plasma, cycle 1 day 4 and day 5
measurement parameters: human, plasma, intravenous, t max, Median (min–max); 800 mg/m^2 Bel + 75 mg/m^2 doxorubicin, Day 5 (with doxorubicin), N = 6
quantity measured: Tmax (min)
Reply with just the number (in min).

Query: Fill blank: measured Tmax of the compound O=C(/C=C/c1cccc(S(=O)(=O)Nc2ccccc2)c1)NO is ____.
Result: 32

----------
assay text: Pharmacokinetic analyses, plasma, cycle 1 day 4 and day 5
measurement parameters: human, plasma, intravenous, V ss, 600 mg/m^2 Bel + 50 mg/m^2 doxorubicin, Day 5 (with doxorubicin), N: 1; individual parameter presented
quantity measured: Vd (L)
Reply with just the number (in L).

Query: Fill blank: measured Vd of the molecule O=C(/C=C/c1cccc(S(=O)(=O)Nc2ccccc2)c1)NO is ____.
Result: 72.8

----------
assay text: Pharmacokinetic analyses, plasma, cycle 1 day 4 and day 5
measurement parameters: human, plasma, intravenous, 1000 mg/m^2, CL, 1000 mg/m^2 Bel + 75 mg/m^2 doxorubicin, Day 4 (Bel alone), N: 18
quantity measured: clearance (mL/min)
Reply with just the number (in mL/min).

Query: Fill blank: measured clearance of the molecule O=C(/C=C/c1cccc(S(=O)(=O)Nc2ccccc2)c1)NO [belinostat] is ____.
Result: 1360

----------
assay text: Pharmacokinetic analyses, plasma, cycle 1 day 4 and day 5
measurement parameters: human, plasma, intravenous, V ss, 600 mg/m^2 Bel + 75 mg/m^2 doxorubicin, Day 5 (with doxorubicin), N: 3
quantity measured: Vd (L)
Reply with just the number (in L).

Query: Fill blank: measured Vd of the compound O=C(/C=C/c1cccc(S(=O)(=O)Nc2ccccc2)c1)NO [belinostat] is ____.
Result: 90.8

----------
assay text: Pharmacokinetic analyses, plasma, cycle 1 day 4 and day 5
measurement parameters: human, plasma, intravenous, 600 mg/m^2, AUC0–tlast, 600 mg/m^2 Bel + 75 mg/m^2 doxorubicin, Day 4 (Bel alone), N = 7
quantity measured: AUC(0-t) (ng·h/mL)
Reply with just the number (in ng·h/mL).

Query: Fill blank: measured AUC(0-t) of the molecule O=C(/C=C/c1cccc(S(=O)(=O)Nc2ccccc2)c1)NO is ____.
Result: 9670

----------
assay text: Pharmacokinetic analyses, plasma, cycle 1 day 4 and day 5
measurement parameters: human, plasma, intravenous
quantity measured: half-life

Query: Fill blank: measured half-life of the molecule COc1cccc2c1C(=O)c1c(O)c3c(c(O)c1C2=O)C[C@@](O)(C(=O)CO)C[C@@H]3O[C@H]1C[C@H](N)[C@H](O)[C@H](C)O1 [doxorubicin] is ____.
Result: 7.6 to 10.8 h

----------
assay text: Pharmacokinetic analyses, plasma, cycle 1 day 4 and day 5
measurement parameters: human, plasma, intravenous, 600 mg/m^2, t max, Median (min–max); 600 mg/m^2 Bel + 50 mg/m^2 doxorubicin, Day 4 (Bel alone), N = 3
quantity measured: Tmax (min)
Reply with just the number (in min).

Query: Fill blank: measured Tmax of the molecule O=C(/C=C/c1cccc(S(=O)(=O)Nc2ccccc2)c1)NO is ____.
Result: 32

----------
assay text: Pharmacokinetic analyses, plasma, cycle 1 day 4 and day 5
measurement parameters: human, plasma, intravenous, t max, Median (min–max); 600 mg/m^2 Bel + 50 mg/m^2 doxorubicin, Day 5 (with doxorubicin), N = 3
quantity measured: Tmax (min)
Reply with just the number (in min).

Query: Fill blank: measured Tmax of the compound O=C(/C=C/c1cccc(S(=O)(=O)Nc2ccccc2)c1)NO [belinostat] is ____.
Result: 34

----------
assay text: Pharmacokinetic analyses, plasma, cycle 1 day 4 and day 5
measurement parameters: human, plasma, intravenous, AUC0–tlast, 800 mg/m^2 Bel + 75 mg/m^2 doxorubicin, Day 5 (with doxorubicin), N = 6
quantity measured: AUC(0-t) (ng·h/mL)
Reply with just the number (in ng·h/mL).

Query: Fill blank: measured AUC(0-t) of the compound O=C(/C=C/c1cccc(S(=O)(=O)Nc2ccccc2)c1)NO is ____.
Result: 14600

----------
assay text: Pharmacokinetic analyses, plasma, cycle 1 day 4 and day 5
measurement parameters: human, plasma, intravenous, C max, 600 mg/m^2 Bel + 50 mg/m^2 doxorubicin, Day 5 (with doxorubicin), N = 3
quantity measured: Cmax
Note: state the figure and append the unit.

Query: Fill blank: measured Cmax of the molecule O=C(/C=C/c1cccc(S(=O)(=O)Nc2ccccc2)c1)NO [belinostat] is ____.
Result: 18300 ng/mL

----------
assay text: Pharmacokinetic analyses, plasma, cycle 1 day 4 and day 5
measurement parameters: human, plasma, intravenous, 800 mg/m^2, V ss, 800 mg/m^2 Bel + 75 mg/m^2 doxorubicin, Day 4 (Bel alone), N: 4
quantity measured: Vd (L)
Reply with just the number (in L).

Query: Fill blank: measured Vd of the molecule O=C(/C=C/c1cccc(S(=O)(=O)Nc2ccccc2)c1)NO is ____.
Result: 107

----------
assay text: Pharmacokinetic analyses, plasma, cycle 1 day 4 and day 5
measurement parameters: human, plasma, intravenous, t 1/2, 1000 mg/m^2 Bel + 75 mg/m^2 doxorubicin, Day 5 (with doxorubicin), N = 19
quantity measured: half-life (h)
Reply with just the number (in h).

Query: Fill blank: measured half-life of the molecule O=C(/C=C/c1cccc(S(=O)(=O)Nc2ccccc2)c1)NO is ____.
Result: 2.13

----------
assay text: Pharmacokinetic analyses, plasma, cycle 1 day 4 and day 5
measurement parameters: human, plasma, intravenous, 600 mg/m^2, C max, 600 mg/m^2 Bel + 50 mg/m^2 doxorubicin, Day 4 (Bel alone), N = 3
quantity measured: Cmax (ng/mL)
Reply with just the number (in ng/mL).

Query: Fill blank: measured Cmax of the molecule O=C(/C=C/c1cccc(S(=O)(=O)Nc2ccccc2)c1)NO [belinostat] is ____.
Result: 21100

----------
assay text: Pharmacokinetic analyses, plasma, cycle 1 day 4 and day 5
measurement parameters: human, plasma, intravenous, 1000 mg/m^2, V ss, 1000 mg/m^2 Bel + 75 mg/m^2 doxorubicin, Day 4 (Bel alone), N: 18
quantity measured: Vd (L)
Reply with just the number (in L).

Query: Fill blank: measured Vd of the molecule O=C(/C=C/c1cccc(S(=O)(=O)Nc2ccccc2)c1)NO is ____.
Result: 51

----------
assay text: Pharmacokinetic analyses, plasma, cycle 1 day 4 and day 5
measurement parameters: human, plasma, intravenous, AUC0–tlast, 1000 mg/m^2 Bel + 75 mg/m^2 doxorubicin, Day 5 (with doxorubicin), N = 19
quantity measured: AUC(0-t) (ng·h/mL)
Reply with just the number (in ng·h/mL).

Query: Fill blank: measured AUC(0-t) of the molecule O=C(/C=C/c1cccc(S(=O)(=O)Nc2ccccc2)c1)NO is ____.
Result: 22100

----------
assay text: Pharmacokinetic analyses, plasma, cycle 1 day 4 and day 5
measurement parameters: human, plasma, intravenous, 600 mg/m^2, CL, 600 mg/m^2 Bel + 75 mg/m^2 doxorubicin, Day 4 (Bel alone), N: 3
quantity measured: clearance (mL/min)
Reply with just the number (in mL/min).

Query: Fill blank: measured clearance of the compound O=C(/C=C/c1cccc(S(=O)(=O)Nc2ccccc2)c1)NO is ____.
Result: 2150

----------
assay text: Pharmacokinetic analyses, plasma, cycle 1 day 4 and day 5
measurement parameters: human, plasma, intravenous, t 1/2, 600 mg/m^2 Bel + 75 mg/m^2 doxorubicin, Day 5 (with doxorubicin), N: 3
quantity measured: half-life (h)
Reply with just the number (in h).

Query: Fill blank: measured half-life of the molecule O=C(/C=C/c1cccc(S(=O)(=O)Nc2ccccc2)c1)NO [belinostat] is ____.
Result: 4.83
